molecular target: p110δ/p85α (Homo sapiens, UniProt O00329); construct: purchased Invitrogen; assay: Transcreener KINASE Assay, kinase inhibition of p110δ/p85α; type: biochemical; settings: @ 1 uM
Sequence (O00329 whole entry, species assumed): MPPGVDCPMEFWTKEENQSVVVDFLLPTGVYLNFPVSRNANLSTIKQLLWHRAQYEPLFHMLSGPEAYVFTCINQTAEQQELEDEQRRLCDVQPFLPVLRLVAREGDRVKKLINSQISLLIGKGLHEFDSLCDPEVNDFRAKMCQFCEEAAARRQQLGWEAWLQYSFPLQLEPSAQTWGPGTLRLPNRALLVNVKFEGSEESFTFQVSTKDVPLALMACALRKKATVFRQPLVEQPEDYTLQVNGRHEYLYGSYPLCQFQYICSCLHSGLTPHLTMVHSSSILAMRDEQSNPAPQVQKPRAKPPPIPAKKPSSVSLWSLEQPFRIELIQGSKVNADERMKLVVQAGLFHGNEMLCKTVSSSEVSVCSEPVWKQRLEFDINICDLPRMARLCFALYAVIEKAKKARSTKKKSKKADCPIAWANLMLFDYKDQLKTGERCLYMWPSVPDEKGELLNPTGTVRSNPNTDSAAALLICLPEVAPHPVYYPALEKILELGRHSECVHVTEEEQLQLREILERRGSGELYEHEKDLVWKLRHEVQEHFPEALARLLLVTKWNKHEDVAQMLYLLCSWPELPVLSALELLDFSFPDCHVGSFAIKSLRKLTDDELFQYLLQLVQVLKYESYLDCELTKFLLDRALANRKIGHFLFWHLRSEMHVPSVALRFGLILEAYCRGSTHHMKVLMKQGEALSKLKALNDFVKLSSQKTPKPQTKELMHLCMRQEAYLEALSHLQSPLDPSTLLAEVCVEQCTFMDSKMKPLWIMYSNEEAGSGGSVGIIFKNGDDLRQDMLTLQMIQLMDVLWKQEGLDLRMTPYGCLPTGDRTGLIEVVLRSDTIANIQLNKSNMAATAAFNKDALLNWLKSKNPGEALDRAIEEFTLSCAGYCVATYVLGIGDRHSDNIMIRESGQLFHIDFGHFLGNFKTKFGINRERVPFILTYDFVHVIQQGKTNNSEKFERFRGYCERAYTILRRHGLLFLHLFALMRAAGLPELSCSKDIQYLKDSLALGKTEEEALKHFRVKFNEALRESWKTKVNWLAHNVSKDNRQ
Sequence (P27986 whole entry partner, species assumed): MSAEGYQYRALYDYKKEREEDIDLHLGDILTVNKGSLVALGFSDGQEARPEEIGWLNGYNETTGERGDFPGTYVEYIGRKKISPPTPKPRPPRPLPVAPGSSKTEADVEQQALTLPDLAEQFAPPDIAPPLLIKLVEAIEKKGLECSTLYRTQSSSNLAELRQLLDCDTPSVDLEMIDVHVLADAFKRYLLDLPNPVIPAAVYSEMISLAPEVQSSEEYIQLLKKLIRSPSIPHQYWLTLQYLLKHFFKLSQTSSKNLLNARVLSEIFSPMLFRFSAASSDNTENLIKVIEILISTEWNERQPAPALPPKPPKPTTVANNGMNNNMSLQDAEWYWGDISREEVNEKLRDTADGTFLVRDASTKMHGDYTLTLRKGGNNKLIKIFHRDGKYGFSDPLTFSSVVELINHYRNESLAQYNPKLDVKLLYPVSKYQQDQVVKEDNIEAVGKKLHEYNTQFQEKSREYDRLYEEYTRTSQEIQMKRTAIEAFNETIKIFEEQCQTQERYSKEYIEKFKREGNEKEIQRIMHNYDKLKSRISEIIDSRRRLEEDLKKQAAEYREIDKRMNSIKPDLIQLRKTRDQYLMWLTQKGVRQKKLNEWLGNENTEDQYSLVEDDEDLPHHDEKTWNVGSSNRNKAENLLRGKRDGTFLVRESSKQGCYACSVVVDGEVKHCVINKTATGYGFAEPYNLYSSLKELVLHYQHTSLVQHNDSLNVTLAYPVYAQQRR
quantity.name: PI3Kδ IH % @ 1 uM (%)

Check out these entries, answers already filled in.
molecule: COc1cccc(-n2c([C@@H]3CCCN3c3ncnc(N)c3C#N)nn3cccc3c2=O)c1
experimental.target: p110δ/p85α (Homo sapiens, UniProt O00329)
unit.abbrev: %
readout.number: 100

molecule: N#Cc1n[nH]c2ncnc(N3CCC[C@H]3c3nn4cccc4c(=O)n3-c3ccccc3)c12
experimental.target: p110δ/p85α (Homo sapiens, UniProt O00329)
unit.abbrev: %
readout.number: 72.8

molecule: N#Cc1c(N)ncnc1N1CCC[C@H]1c1nn2cccc2c(=O)n1-c1ccccc1
experimental.target: p110δ/p85α (Homo sapiens, UniProt O00329)
unit.abbrev: %
readout.number: 98.3

molecule: COc1cccc(-n2c([C@@H]3CCCN3c3ncnc(N)c3Cl)nn3cccc3c2=O)c1
experimental.target: p110δ/p85α (Homo sapiens, UniProt O00329)
unit.abbrev: %
readout.number: 94.3

molecule: COc1cccc(-n2c([C@@H]3CCCC3c3ncnc4[nH]cnc34)nn3cccc3c2=O)c1 (stereo partly shown)
experimental.target: p110δ/p85α (Homo sapiens, UniProt O00329)
unit.abbrev: %
readout.number: 97.4

molecule: N#Cc1cccc(-n2c([C@@H]3CCCN3c3ncnc4[nH]cc(C#N)c34)nn3cccc3c2=O)c1
experimental.target: p110δ/p85α (Homo sapiens, UniProt O00329)
unit.abbrev: %
readout.number: 99.2

molecule: O=c1c2cccn2nc([C@@H]2CCCN2c2ncnc3[nH]nc(Br)c23)n1-c1ccccc1
experimental.target: p110δ/p85α (Homo sapiens, UniProt O00329)
unit.abbrev: %
readout.number: 80.6

molecule: O=c1c2c(Cl)ccn2nc([C@@H]2CCCN2c2ncnc3[nH]cnc23)n1CC1CC1
experimental.target: p110δ/p85α (Homo sapiens, UniProt O00329)
unit.abbrev: %
readout.number: 97.5

[1] O=c1c2cccn2nc([C@@H]2CCCN2c2ncnc3[nH]cnc23)n1-c1cccc(Cl)c1
[2] O=c1c2cccn2nc([C@H]2CCCN2c2ncnc3[nH]cnc23)n1-c1ccccc1
Ask: Which gives the smaller PI3Kδ IH % @ 1 uM number: 1 or 2 ? Could you answer with the label of the item you picked?
Result: 2
(2: 17.7%, 1: 100%)
